- System: PXR:RXRa (NR concentration 270 nM, RXRa partner concentration 90 nM)
- TEST_PROTOCOL: PBM binding z-score (relative to random genomic background probes); higher = stronger binding; sequences stand for … in GC…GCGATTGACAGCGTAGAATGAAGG
Here the recorded PBM binding z-score is given for each entry.
Write no unit; give the number alone.

Check out these entries, answers already filled in.
INSERT INTO results (residue_string, measurement_label, experimental_value) VALUES
  ('GCGACTGGGGCATAGCAGGTTACCATAAGGTTGG', 'PBM binding z-score', 0.0194),
  ('CTCCCAAGGTGAACAAGGTCGTTGATTACTATTC', 'PBM binding z-score', 2.42),
  ('CCGACTGGGGCAGAAAGGTCACCATACCATCCGG', 'PBM binding z-score', 5.07),
  ('TCTGGTAGATCAATAGAGGTTAAGAAAGTGCGCT', 'PBM binding z-score', 3),
  ('GCGACTGGGGCATCACCAGGTTACCATAACTTAA', 'PBM binding z-score', 0.244),
  ('TCTGCTAGGCCAACGATGGTCAGCTAATCTGCTA', 'PBM binding z-score', -0.538),
  ('GGGACTGGGGCAAAGCAGGTTACCATAAGGTTGG', 'PBM binding z-score', 1.21),
  ('CCTACTGGGCCAATCAGAGGTCATTGATCATATG', 'PBM binding z-score', 5.06);

q: Could you share what PBM binding z-score was measured for TCATATAGGTAAACAGGTGAAAGTTCGTAAGTTA , tested on PXR:RXRa (NR concentration 270 nM, RXRa partner concentration 90 nM)?
a: 2.07

q: Could you share what PBM binding z-score was measured for CCTGCTAGGTCATGGTCACCTAATCTACAGTATG , tested on PXR:RXRa (NR concentration 270 nM, RXRa partner concentration 90 nM)?
a: 1.82

q: Could you share what PBM binding z-score was measured for GCTTACGGGTCAAGGGTTATAGCATGAATAGAAT , tested on PXR:RXRa (NR concentration 270 nM, RXRa partner concentration 90 nM)?
a: 4.69

q: Could you share what PBM binding z-score was measured for ATCGAAAGGTCGATGAGGTGAGTATACACCGTTT , tested on PXR:RXRa (NR concentration 270 nM, RXRa partner concentration 90 nM)?
a: 2.58

###

- System: RARg homodimer (NR concentration 270 nM)
- TEST_PROTOCOL: PBM binding z-score (relative to random genomic background probes); higher = stronger binding; sequences stand for … in GC…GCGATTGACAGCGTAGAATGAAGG
MEASUREMENT_LABEL: PBM binding z-score

INSERT INTO results (residue_string, system_tested, experimental_value) VALUES
  ('TCTGCTAGGGCAACGATGGTCAGCTAATCTGCTA', 'RARg homodimer (NR concentration 270 nM)', 0.934),
  ('CGTCAAAGTTCAAGGGAACGTAACAGAAAGCAGC', 'RARg homodimer (NR concentration 270 nM)', 5.93),
  ('CCTTACGGGTCAAGGTTAGAGCACGGGTGGTACG', 'RARg homodimer (NR concentration 270 nM)', 4.65),
  ('CCCACTGGGGCAGAAAGGTTACCATACCATCCGG', 'RARg homodimer (NR concentration 270 nM)', 1.63),
  ('CGTACTGGGCCAAGGTCATTGATCAGTCAAAGCA', 'RARg homodimer (NR concentration 270 nM)', 3.26);

q: Fill in: PBM binding z-score of TCTTGTAGATCAAAGGTTAAGAAAGCCGAAGCCT is ___
a: 0.776
